# Tested on: SW-620 colon
# Protocol description: NCI tumour cell line growth inhibition, 48 h
Parameter: GI50

What is its GI50 for SW-620 colon? Entry: `O=[N+]([O-])c1ccc2[nH]cc(-c3c4ccccc4cc4[nH]c5ccc([N+](=O)[O-])cc5c34)c2c1`
2730 nM

What is its GI50 for SW-620 colon? Entry: `O=C(CCN1CCCC1)Nc1ccc2c(NCCCCc3ccccc3)c3ccccc3nc2c1`
534 nM

What is its GI50 for SW-620 colon? Entry: `O=C1c2cccnc2-c2nc(-c3ccc([N+](=O)[O-])cc3)cc3c2c1nc1ccccc13`
3210 nM

What is its GI50 for SW-620 colon? Entry: `O=Cc1ccc(C(F)(F)F)cc1.[C-]#[O+].[C-]#[O+].[C-]#[O+].[Cr]`
30900 nM

What is its GI50 for SW-620 colon? Entry: `O=Nc1c(-c2cccc([N+](=O)[O-])c2)nc2ncccn12`
2080 nM

What is its GI50 for SW-620 colon? Entry: `Cc1c2c(nn1-c1ccc(S/N=C3\SCC(=O)CN3c3ccccc3)cc1)-c1ccccc1CC2`
19100 nM

What is its GI50 for SW-620 colon? Entry: `COC(=O)c1oc2c(C(=O)/C=C/c3ccc(OC)cc3)c(OCCCN3CCCCC3)ccc2c1C`
1380 nM

What is its GI50 for SW-620 colon? Entry: `CC(C)[C@]12O[C@H]1[C@@H]1O[C@]13[C@]1(O[C@H]1C[C@H]1c4c(C(=O)c5ccccc5)oc(OC(=O)c5ccccc5)c4CC[C@@]13C)[C@@H]2O`
17.9 nM

---

Please provide measured TGI for the entries that follow.
# Test system: DMS 273 small cell lung
# Protocol description: NCI tumour cell line growth inhibition, 48 h

# query: TGI of entry Cc1c2cc[n+](C)cc2c(COC2OC(CO)C(O)C2O)c2c3ccccc3n(C)c12 (stereo not drawn)
> 100 µM

# query: TGI of entry Cc1cccc(C)c1NC(=O)C(=O)C1C(=O)N(c2ccccc2)N=C1N (stereo not drawn)
> 100 µM

# query: TGI of entry CC(CN(CP(=O)([O-])[O-])CP(=O)([O-])[O-])N(CP(=O)([O-])[O-])CP(=O)([O-])[O-].N[C@@H]1CCCC[C@@H]1N.[Pt+2] (stereo not drawn)
> 100 µM

# query: TGI of entry `CC(C)(C)c1ccccc1NS(=O)(=O)c1ccccc1`
> 100 µM

# query: TGI of entry `Cc1cc(Cl)ccc1N1C(=O)C(=O)C(c2nc3ccccc3s2)C(=O)C1=O`
> 100 µM

# query: TGI of entry `COC(=O)/C(C#N)=C1\N=NNN1CCCc1ccccc1`
> 100 µM

# query: TGI of entry C[Si](C)(C)/C(Br)=C\CCN1C(=O)CCC1O (stereo not drawn)
> 100 µM

# query: TGI of entry `Cc1cc2c(=O)cc(-c3ccc(Cl)cc3)oc2c(C(=O)O)c1C`
> 100 µM

# query: TGI of entry CCOC(=O)[C@H]1Nc2ccc(O)cc2C2c3ccccc3CC21 (stereo partly drawn)
> 100 µM

# query: TGI of entry `OC(Cn1cncn1)(Cn1cncn1)c1ccc(Cl)cc1Cl`
> 100 µM

# query: TGI of entry O=C1/C(=C/c2ccc(O)cc2)CCC1CNc1ccc(Cl)cc1 (stereo not drawn)
12.1 µM

# query: TGI of entry `COc1ccccc1NC(=O)C1=C(C)NC(C)=C(C(=O)Nc2ccccc2OC)C1c1ccc(C(C)C)cc1`
> 100 µM

# query: TGI of entry CC(C)(C)c1cc(C(O)(C(F)(F)F)C(F)(F)F)c2c(c1)C(C(F)(F)F)(C(F)(F)F)OC(c1ccccc1)(C(C)(C)C)N2 (stereo not drawn)
13.6 µM

---

# Test system: HOP-62 NSCLC
# Protocol description: NCI tumour cell line growth inhibition, 48 h
Parameter: TGI

# query: TGI of entry `CCOC(=O)C(=Cc1ccccc1Br)C(=O)OCC`
> 100 µM

# query: TGI of entry `CN(C)/[N+]([O-])=N/Oc1cc(Nc2ccc(C(=O)O)cc2)c([N+](=O)[O-])cc1[N+](=O)[O-]`
35 µM

# query: TGI of entry Nc1nc(Cl)cc(NCC2(CO)CC(CCCCc3ccccc3)C2)n1 (stereo not drawn)
> 100 µM

# query: TGI of entry Cc1cc(Cl)ccc1NC(=O)C1C(=O)N(c2ccc(Cl)cc2C)C(=O)/C1=N\N (stereo not drawn)
> 100 µM

# query: TGI of entry `CCOc1ccc(NC(=O)C2=C(C)NC(C)=C(C(=O)Nc3ccc(OCC)cc3)C2c2ccc([N+](=O)[O-])cc2)cc1`
> 100 µM

# query: TGI of entry `CC(=O)Nc1ccc(C(=O)N[C@@H]2C(=O)N3[C@@H]2SC(C)(C)[C@@H]3C(=O)O)cn1`
> 100 µM

# query: TGI of entry `COc1cc(-c2ccc(-c3ccc(C(=N)N)s3)s2)cc(OC)c1OC`
3.97 µM

# query: TGI of entry `O=C(OCCOCCOC(=O)c1c[nH]cc1-c1ccccc1)c1c[nH]cc1-c1ccccc1`
31.7 µM

# query: TGI of entry `CCP(=O)(CC)C(Cl)(Cl)C(=O)NC`
> 100 µM

# query: TGI of entry CC1OC(OC2C(CO)OC(O[C@H]3CC[C@@]4(C)C(=CC[C@H]5[C@@H]6C[C@@H]7O[C@](O)(CC[C@@H](C)COC8OC(CO)C(O)C(O)C8O)[C@@H](C)[C@@H]7[C@@]6(C)CC[C@@H]54)C3)C(OC3OC(C)C(O)C(O)C3O)C2O)C(O)C(O)C1O (stereo partly drawn)
4.74 µM

# query: TGI of entry `CCN(CCCl)CCNc1c2ccccc2nc2ccc(OC)cc12`
3.85 µM

# query: TGI of entry `COC(=O)c1ccc2c(c1)nc(-c1ccc(Cl)cc1)n2-c1cc(C(C)(C)C)[nH]n1`
21 µM

# query: TGI of entry CCCCCCCCCCCCC(Br)C(=O)SCCNC(=O)CCNC(=O)[C@@H](O)C(C)(C)COP(=O)(O)OP(=O)(O)OCC1OC(n2cnc3c(N)ncnc32)C(O)C1OP(=O)(O)O (stereo partly drawn)
> 56.5 µM

# query: TGI of entry `CCOC(=O)C1(C(=O)OCC)C[C@H]2CON=C2[C@@H]1c1ccc(C(F)(F)F)cc1`
64.9 µM

# query: TGI of entry `O=C1NC(=NCCc2ccccc2Cl)S/C1=C\c1ccc2ncccc2c1`
> 25 µM

# query: TGI of entry `c1ccc(COc2nc3ccc(C45CC6CC(CC(C6)C4)C5)cc3[nH]2)cc1`
> 74.8 µM

# query: TGI of entry `O=c1[nH]c2ccc(CC(=S)N3CCN(c4ccccc4)CC3)cc2s1`
50.1 µM

# query: TGI of entry `O=Cc1cc(O)c(O)c(O)c1-c1c(C=O)cc(O)c(O)c1O`
> 100 µM

# query: TGI of entry COc1nc2c(nc(N)n2C2OC(CO)C(O)C(O)C2O)c(=O)n1C (stereo not drawn)
> 100 µM

# query: TGI of entry `COc1ccc(Cc2ccccc2C(=O)O)c2ccccc12`
> 100 µM

# query: TGI of entry `Cc1ccc(/C=C(\C#N)n2nnc3cc(F)c(F)cc32)cc1`
3.64 µM

# query: TGI of entry `CCOC(=O)c1c(NC(=S)NCc2ccccc2)sc2c1CCN(C)C2`
> 100 µM

# query: TGI of entry `CCN1C(=O)N(c2c(F)c(OC)cc(OC)c2F)Cc2cnc3[nH]c(CN4CCOCC4)cc3c21`
> 100 µM

# query: TGI of entry `Cc1cccc(Nc2cn(CCOc3ccccc3)c(=O)[nH]c2=O)c1`
> 100 µM

# query: TGI of entry `O=C1NC(=NCc2ccccn2)S/C1=C\c1ccc2ncccc2c1`
> 25 µM

# query: TGI of entry `Brc1ccc(-c2ccc(-c3ccc(Br)s3)s2)s1`
> 100 µM

# query: TGI of entry `COC(=O)c1c(C)nc(C)c(N=O)c1-c1ccccc1C(F)(F)F`
> 100 µM

# query: TGI of entry `COC(=O)c1ccc(/C=C/C2=CC(=O)C=CC2=O)cc1`
> 100 µM

# query: TGI of entry `O=C1c2cccc3cccc(c23)C(=O)N1CCCCOc1ccc(-c2nc3ccc(N4CCOCC4)cc3[nH]2)cc1`
5.9 µM

# query: TGI of entry `CC1CCN(c2nnc(Cl)cc2C(=O)c2ccccc2)CC1`
> 100 µM

# query: TGI of entry `CC1=C(C)C(=O)C(C(C)C2=C(C)C(=O)C(C)=C(C)C2=O)=C(C)C1=O`
> 100 µM

# query: TGI of entry CC1SC(c2cccs2)N(NC(=O)C(O)c2ccccc2)C1=O (stereo not drawn)
> 100 µM

# query: TGI of entry `COc1ccc(N(C(=O)OC(C)(C)C)[C@@H]2C(C)=C[C@H]([S@@](=O)c3ccc(C)cc3)[C@@H]3C(=O)N(C)C(=O)[C@@H]32)cc1`
64.2 µM

# query: TGI of entry C[C@H](NC(=O)OC1C2C=CC(O)C1CC2)c1ccccc1 (stereo partly drawn)
> 100 µM

# query: TGI of entry `CCOC(=O)c1ccc(N=C/C=C(\Nc2ccc(C(=O)OCC)cc2)c2ccc3ccccc3c2)cc1`
95.8 µM

# query: TGI of entry `O=C(Nc1ccccc1Cl)c1ccc(NC2=C(Cl)C(=O)N(Cc3ccccc3)C2=O)cc1`
> 100 µM

# query: TGI of entry `N#C/C(=C/N1CCN(C(=O)c2ccco2)C1=S)C(N)=O`
66.9 µM

# query: TGI of entry Cc1ccccc1NC(=O)NC(CC(N)=O)c1ccc2c(c1)nc(-c1cccc(Oc3ccc(C(C)(C)C)cc3)c1)n2CCCN1CCCCC1C (stereo not drawn)
4.46 µM

Value source: PubChem BioAssay (NCI)
